Tested on: ornithine decarboxylase (ODC)
experiment-description: Inhibition of TPA induction of ornithine decarboxylase (ODC) activity
Type: in vivo
condition-summary: inhibition of TPA-induced ODC; assay essentially per Cancer Res: 1662-1670, 1975
Please note: y applies when IC80 is 20 nM or greater, and n applies otherwise.

{"columns": ["compound", "label"],
 "data": [
  ["CCOC(=O)c1ccc(C#C/C=C/C23OC2(C)CCCC3(C)C)nc1 (racemic)", "n"],
  ["CC1(C)CCCC2(C)OC12/C=C/C#Cc1ccc(C(=O)O)s1 (racemic)", "y"],
  ["CC1(C)CCCC2(C)OC12/C=C/C#Cc1ccc(C(=O)O)cn1 (racemic)", "y"],
  ["CCOC(=O)c1ccc(C#C/C=C/C23OC2(C)CCCC3(C)C)s1 (racemic)", "n"],
  ["CC1(C)CCCC2(C)OC12/C=C/C#Cc1ccc(C(=O)O)cc1 (racemic)", "n"]
]}
